Target or system Tyrosine-protein kinase JAK3 (Homo sapiens, UniProt P52333); metric Ki; compiled from varied reports.

compound: COc1cc2nc(-c3c[nH]c4ncccc34)nc(NC(C)(C)C(=O)NCC(F)F)c2cc1OC
Ki: ≥ 100 nM

Param readout = Ki; param system = Tyrosine-protein kinase JAK3 (Homo sapiens, UniProt P52333); param query = CC(C)CN(C)c1cc(-c2c(N)nn3cc(-c4ccncc4)cnc23)ncn1 ; response: value
< 500 nM

Param readout = Ki; param system = Tyrosine-protein kinase JAK3 (Homo sapiens, UniProt P52333); param query = C[C@H](Nc1ncnc(-c2c[nH]c3ncncc23)n1)C(=O)NCC(F)(F)F ; response: value
< 500 nM

Param readout = Ki; param system = Tyrosine-protein kinase JAK3 (Homo sapiens, UniProt P52333); param query = CCN(CC)C(=O)c1ccc(-c2cnc3c(-c4ccccn4)c(N)nn3c2)nc1 ; response: value
500 to 5000 nM

Param readout = Ki; param system = Tyrosine-protein kinase JAK3 (Homo sapiens, UniProt P52333); param query = C[C@H](Nc1cc(-c2c(N)nn3cccnc23)nc(N2CC[C@H](F)C2)n1)c1ccc(F)cc1 ; response: value
100 to 500 nM

Param readout = Ki; param system = Tyrosine-protein kinase JAK3 (Homo sapiens, UniProt P52333); param query = CC(C)(Nc1ccnc(-c2c[nH]c(C(=O)N3CCCC3)c2)n1)C(=O)NCC(F)(F)F ; response: value
≤ 1000 nM

Param readout = Ki; param system = Tyrosine-protein kinase JAK3 (Homo sapiens, UniProt P52333); param query = C[C@@H](Nc1nc(-c2cccnc2)ncc1F)C(=O)NCC(F)(F)F ; response: value
10000 to 50000 nM

Param readout = Ki; param system = Tyrosine-protein kinase JAK3 (Homo sapiens, UniProt P52333); param query = CCNC(=O)Nc1ccc(Nc2ncn(-c3ccnc(N4C[C@@H](C)N(C(C)=O)[C@@H](C)C4)c3)n2)cc1 ; response: value
< 10 nM

Param readout = Ki; param system = Tyrosine-protein kinase JAK3 (Homo sapiens, UniProt P52333); param query = Fc1cccc(-c2cnoc2-c2c[nH]c3ncc(C4=CCC(NCc5ccccc5)CC4)cc23)c1F (stereo not drawn) ; response: value
< 200 nM

Param readout = Ki; param system = Tyrosine-protein kinase JAK3 (Homo sapiens, UniProt P52333); param query = N#CCCN(Cc1ccco1)C(=O)c1cc(-c2ncnc3[nH]ccc23)c[nH]1 ; response: value
< 100 nM

Param readout = Ki; param system = Tyrosine-protein kinase JAK3 (Homo sapiens, UniProt P52333); param query = COc1ccc(C2NC(=O)c3ccccc3-c3ccnc4[nH]cc2c34)cc1C (stereo not drawn) ; response: value
> 2500 nM

Param readout = Ki; param system = Tyrosine-protein kinase JAK3 (Homo sapiens, UniProt P52333); param query = Nc1nn2cc(CCCNC3CC3)cnc2c1-c1ccccn1 ; response: value
> 5000 nM

Param readout = Ki; param system = Tyrosine-protein kinase JAK3 (Homo sapiens, UniProt P52333); param query = COC(=O)c1cccc(Nc2nccc(-c3ccc4c(c3)N(Cc3cccnc3)C(=O)CO4)n2)c1 ; response: value
< 5000 nM

Param readout = Ki; param system = Tyrosine-protein kinase JAK3 (Homo sapiens, UniProt P52333); param query = C[C@H](Nc1ccnc(-c2cnn3cccnc23)n1)c1ccc(Cl)cc1 ; response: value
500 to 5000 nM

Param readout = Ki; param system = Tyrosine-protein kinase JAK3 (Homo sapiens, UniProt P52333); param query = CCCN(CCO)c1ccc(-c2cnc3c(-c4ccccn4)c(N)nn3c2)cn1 ; response: value
> 5000 nM

Param readout = Ki; param system = Tyrosine-protein kinase JAK3 (Homo sapiens, UniProt P52333); param query = Fc1ccc(-c2cnoc2-c2c[nH]c3ncccc23)c(F)c1F ; response: value
1000 to 12500 nM
